Kindly state pIC50 for each of the entries shown.
Molecular target: skeletal myofibrils (myosin ATPase activity)
Assay: Skeletal Myofibril ATPase Assay
Conditions: PK-LDH coupled, absorbance at 340 nm
pIC50: −log10 of the molar value.

Lookup: So what's the measured pIC50 for this one? CCCOc1ncc(-c2ccc(=O)n(Cc3cnc(CC)s3)n2)cn1 [Compound 112]
Found: > 5.00

Lookup: Consider next the compound O=c1ccc(-c2cnc(OCC3CCC3)nc2)nn1Cc1cncc(F)c1 [Compound 126] in the same way.
Found: > 5.00

Lookup: Consider next the compound Cc1ccc(-c2ccc(=O)n(Cc3nc(-c4ccccc4C)no3)n2)cc1 [Compound 312] in the same way.
Found: > 5.00

Lookup: Consider next the compound O=c1ccc(-c2cnc(OCC(F)(F)F)nc2)nn1Cc1cccnc1O [Compound 47] in the same way.
Found: < 4.00

---

Biological target: skeletal myofibrils (myosin ATPase activity)
Test: Skeletal Myofibril ATPase Assay
Conditions: PK-LDH coupled, absorbance at 340 nm
pIC50: −log10 of the molar value.
Kindly state pIC50 for each of the entries shown.

Lookup: So what's the measured pIC50 for this one? `O=c1ccc(-c2cnc(OCC(F)(F)F)nc2)nn1Cc1nnc(-c2ccccn2)s1`
Found: > 5.00

Lookup: Consider next the compound `N#Cc1cncc(Cn2nc(-c3cnc(OCC(F)(F)F)nc3)ccc2=O)c1` in the same way.
Found: > 5.00

Lookup: Consider next the compound `O=c1ccc(-c2ccc(OCC(F)(F)F)cc2)nn1Cc1cncc(F)c1` in the same way.
Found: > 5.00

Lookup: Consider next the compound COc1ccc(-c2ccc(=O)n(Cc3nc(-c4ccc(OC)cc4)no3)n2)cc1 [Compound 305] in the same way.
Found: > 5.00

Lookup: Consider next the compound `O=c1ccc(-c2ccc(OC(F)F)cc2)nn1Cc1nc(C2CC2)co1` in the same way.
Found: 4.00 to 5.00

Lookup: Consider next the compound `Cc1ncc(Cn2nc(-c3cnc(OCC(C)C)nc3)ccc2=O)s1` in the same way.
Found: > 5.00

Lookup: Consider next the compound `O=c1ccc(-c2cnc(OCCC(F)(F)F)nc2)nn1Cc1cncc(F)c1` in the same way.
Found: > 5.00

Lookup: Consider next the compound `O=c1[nH]nc(Cn2nc(-c3ccc(OC(F)F)cc3)ccc2=O)o1` in the same way.
Found: < 4.00

Lookup: Consider next the compound `O=c1ccc(-c2cnc(OCC(F)(F)F)nc2)nn1Cc1cc(-c2ccccn2)no1` in the same way.
Found: > 5.00

Lookup: Consider next the compound `O=c1ccc(-c2ccc(OC(F)F)nc2)nn1Cc1cncc(F)c1` in the same way.
Found: > 5.00

Lookup: Consider next the compound `O=c1ccc(-c2ccc(OC(F)F)nc2)nn1Cc1cccnc1` in the same way.
Found: 4.00 to 5.00

Lookup: Consider next the compound `O=c1ccc(-c2cnc(OCC(F)(F)F)nc2)nn1Cc1nnc(-c2ccccc2)s1` in the same way.
Found: > 5.00

Lookup: Consider next the compound `CC(F)(F)COc1ncc(-c2ccc(=O)n(Cc3cncc(F)c3)n2)cn1` in the same way.
Found: > 5.00

Lookup: Consider next the compound `O=c1ccc(-c2cnc(OCC(F)(F)F)nc2)nn1Cc1cnccc1O` in the same way.
Found: < 4.00

Lookup: Consider next the compound `Cc1ncc(-c2ccc(=O)n(Cc3cncc(F)c3)n2)cn1` in the same way.
Found: 4.00 to 5.00

Lookup: Consider next the compound `O=c1ccc(-c2cnc(OCc3ccccc3)nc2)nn1Cc1cncc(F)c1` in the same way.
Found: > 5.00

Lookup: Consider next the compound `O=c1ccc(-c2ccc(OC(F)F)nc2)nn1Cc1nnc(-c2ccc(F)cc2)s1` in the same way.
Found: > 5.00

Lookup: Consider next the compound `Cc1cncc(Cn2nc(-c3cnc(OCC(F)(F)F)nc3)ccc2=O)c1` in the same way.
Found: > 5.00

Lookup: Consider next the compound `O=c1ccc(-c2ccc(OC(F)F)cc2)nn1Cc1cncnc1` in the same way.
Found: 4.00 to 5.00

Lookup: Consider next the compound `O=c1ccc(-c2cnc(OCC(F)(F)F)nc2)nn1Cc1cncs1` in the same way.
Found: > 5.00

Lookup: Consider next the compound COc1ccc(-c2ccc(=O)n(Cc3nc(-c4ccc(OC)cc4)no3)n2)cc1 [Compound 310] in the same way.
Found: > 5.00

Lookup: Consider next the compound O=c1ccc(-c2cnc(N3CCCC3C(F)(F)F)nc2)nn1Cc1cncc(F)c1 (stereo not shown) in the same way.
Found: > 5.00

Lookup: Consider next the compound `CSCCOc1ncc(-c2ccc(=O)n(Cc3cncc(F)c3)n2)cn1` in the same way.
Found: > 5.00

Lookup: Consider next the compound `CC(C)c1ncc(Cn2nc(-c3cnc(OCC(F)(F)F)nc3)ccc2=O)s1` in the same way.
Found: > 5.00

Lookup: Consider next the compound `O=c1ccc(-c2cnc(OCC3(F)COC3)nc2)nn1Cc1nc(-c2ccccc2)no1` in the same way.
Found: > 5.00

Lookup: Consider next the compound `O=c1ccc(-c2cnc(OCC(F)(F)F)nc2)nn1Cc1cccc(O)n1` in the same way.
Found: < 4.00

Lookup: Consider next the compound `O=c1ccc(-c2ccc(OC(F)F)cc2)nn1Cc1ncccn1` in the same way.
Found: < 4.00

Lookup: Consider next the compound `Cc1ccc(Cn2nc(-c3cnc(OCC(F)(F)F)nc3)ccc2=O)nn1` in the same way.
Found: > 5.00
